Reported Kd, Endothelial PAS domain-containing protein 1 (Homo sapiens, UniProt Q99814).
Endpoint: Kd (nM)

Consider the reported Kd for these molecules:
Clc1cccc(C2CC(c3cccc(Br)c3)Nc3nnnn32)c1 (racemic)
116
Fc1cc(Br)cc([C@@H]2C[C@H](c3cccc(Br)c3)n3nnnc3N2)c1
23
Brc1cccc(C2CC(c3ccccc3I)n3nnnc3N2)c1 (racemic)
766
Clc1ccc(Br)cc1C1CC(c2cccc(Br)c2)Nc2nnnn21 (racemic)
126
Fc1ccc(Br)c(Cl)c1C1CC(c2cccc(Br)c2)Nc2nnnn21 (racemic)
411

a. Fc1c(Br)ccc(Br)c1C1CC(c2cccc(Br)c2)Nc2nnnn21 (racemic)
b. Brc1cccc([C@@H]2C[C@H](c3cccc(Br)c3)n3nnnc3N2)c1
c. Fc1ccc(F)c(C2CC(c3cccc(Br)c3)Nc3nnnn32)c1F (racemic)
d. Fc1ccc(Br)c(F)c1[C@H]1C[C@@H](c2cccc(Br)c2)Nc2nnnn21
Prompt line: Task field, ranking: reported Kd, descending order. Your answer should be the labels, listed in the requested order.
Response line: c, a, b, d
(c: 393 nM, a: 240 nM, b: 63 nM, d: 34 nM)

###

Reported IC50, Endothelial PAS domain-containing protein 1 (Homo sapiens, UniProt Q99814, S304M).
Endpoint: IC50 (µM)

Clc1ccc(Br)cc1[C@H]1C[C@@H](c2cccc(Br)c2)Nc2nnnn21
23.9
Brc1cccc([C@@H]2C[C@H](c3ccccc3Br)n3nnnc3N2)c1
18.9

###

Reported IC50, Endothelial PAS domain-containing protein 1 (Homo sapiens, UniProt Q99814).
Endpoint: IC50 (nM)

I. Fc1cc(Br)cc([C@@H]2C[C@H](c3ccccc3)n3nnnc3N2)c1
II. Fc1cc(Br)cc([C@@H]2C[C@H](c3cccc(Br)c3)n3nnnc3N2)c1
Prompt line: // task: argmin of IC50 over [ I , II ] Identify your pick by its label.
Response line: II

###

# System under test: Endothelial PAS domain-containing protein 1 (Homo sapiens, UniProt Q99814, S304M)
# Sequence (Q99814 whole entry S304M, the tested form may be a part): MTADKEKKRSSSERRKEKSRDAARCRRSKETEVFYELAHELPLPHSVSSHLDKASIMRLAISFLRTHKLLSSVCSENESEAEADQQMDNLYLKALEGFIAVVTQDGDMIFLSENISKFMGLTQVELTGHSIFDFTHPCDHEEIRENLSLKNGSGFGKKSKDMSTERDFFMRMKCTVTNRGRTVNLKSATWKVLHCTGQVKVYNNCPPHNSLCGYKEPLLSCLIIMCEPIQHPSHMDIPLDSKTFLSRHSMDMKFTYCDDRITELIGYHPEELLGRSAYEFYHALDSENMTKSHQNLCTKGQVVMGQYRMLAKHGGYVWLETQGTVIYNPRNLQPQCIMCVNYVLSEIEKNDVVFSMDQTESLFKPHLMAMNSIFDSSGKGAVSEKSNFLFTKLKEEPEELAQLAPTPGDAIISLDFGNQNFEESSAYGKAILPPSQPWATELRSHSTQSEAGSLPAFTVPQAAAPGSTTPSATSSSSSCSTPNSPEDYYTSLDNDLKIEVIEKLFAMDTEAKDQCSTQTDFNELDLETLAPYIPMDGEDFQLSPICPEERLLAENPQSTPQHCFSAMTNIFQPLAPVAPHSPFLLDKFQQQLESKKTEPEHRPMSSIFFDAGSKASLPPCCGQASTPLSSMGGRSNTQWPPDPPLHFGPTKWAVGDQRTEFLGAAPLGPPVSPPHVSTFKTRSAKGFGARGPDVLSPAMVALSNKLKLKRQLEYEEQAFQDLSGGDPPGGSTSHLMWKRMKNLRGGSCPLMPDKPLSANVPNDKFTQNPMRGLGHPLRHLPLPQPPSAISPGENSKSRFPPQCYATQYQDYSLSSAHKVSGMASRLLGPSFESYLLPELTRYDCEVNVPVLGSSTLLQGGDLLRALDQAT
Endpoint: IC50 (µM)

Fc1cc(Br)cc([C@@H]2C[C@H](c3cccc(Br)c3)n3nnnc3N2)c1
14.5

I. Fc1ccc(Br)c(F)c1[C@H]1C[C@@H](c2cccc(Br)c2)Nc2nnnn21
II. Clc1ccccc1[C@H]1C[C@@H](c2cccc(Br)c2)Nc2nnnn21
III. Fc1cc(Br)cc([C@@H]2C[C@H](c3ccccc3)n3nnnc3N2)c1
Prompt line: I would appreciate it if you could sort these 3 compounds by IC50, starting from the smallest number. Your answer should be the labels, listed in the requested order.
Response line: I, III, II

###

# System under test: Endothelial PAS domain-containing protein 1 (Homo sapiens)
# Protocol details: Inhibition of HIF-2alpha in human Hep3B cells assessed as downregulation of EPO mRNA expression by RT-PCR analysis
Endpoint: IC50

// IC50 lookup, molecule = `Fc1cc(Br)cc([C@@H]2C[C@H](c3cccc(Br)c3)n3nnnc3N2)c1` , result: < 1000 nM

###

# System under test: Endothelial PAS domain-containing protein 1 (Homo sapiens, UniProt Q99814)
# Sequence (Q99814 whole entry, the tested form may be a part): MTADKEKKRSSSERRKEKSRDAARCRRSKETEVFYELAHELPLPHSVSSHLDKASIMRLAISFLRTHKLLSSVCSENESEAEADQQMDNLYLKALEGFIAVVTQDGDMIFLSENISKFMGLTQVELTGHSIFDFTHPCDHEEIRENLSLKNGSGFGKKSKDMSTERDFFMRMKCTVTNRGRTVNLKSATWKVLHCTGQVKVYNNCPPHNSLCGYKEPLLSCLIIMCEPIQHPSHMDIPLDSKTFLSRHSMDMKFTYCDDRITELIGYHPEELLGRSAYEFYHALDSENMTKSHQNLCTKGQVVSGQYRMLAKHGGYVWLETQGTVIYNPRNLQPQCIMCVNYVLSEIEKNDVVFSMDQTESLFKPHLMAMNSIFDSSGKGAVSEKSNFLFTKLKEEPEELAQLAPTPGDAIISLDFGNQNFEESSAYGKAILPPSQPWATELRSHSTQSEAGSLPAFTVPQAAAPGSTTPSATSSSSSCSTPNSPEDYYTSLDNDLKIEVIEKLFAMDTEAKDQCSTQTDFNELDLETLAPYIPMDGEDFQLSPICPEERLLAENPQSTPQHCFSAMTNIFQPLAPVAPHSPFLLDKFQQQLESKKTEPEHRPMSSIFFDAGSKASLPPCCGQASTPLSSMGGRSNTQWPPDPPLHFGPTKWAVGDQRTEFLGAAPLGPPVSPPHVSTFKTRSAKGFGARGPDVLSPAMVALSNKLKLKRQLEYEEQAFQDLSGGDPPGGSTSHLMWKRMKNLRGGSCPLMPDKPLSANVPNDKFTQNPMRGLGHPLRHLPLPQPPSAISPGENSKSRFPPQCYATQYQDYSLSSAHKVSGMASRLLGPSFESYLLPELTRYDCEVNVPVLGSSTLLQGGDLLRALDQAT
Listing: Kd of selected compounds

Brc1cccc([C@H]2C[C@@H](c3ccccc3Br)n3nnnc3N2)c1
> 2 µM
Clc1ccccc1[C@@H]1C[C@H](c2cccc(Br)c2)Nc2nnnn21
> 2 µM

# Clc1ccccc1C1CC(c2cccc(Br)c2)Nc2nnnn21 (racemic) with Endothelial PAS domain-containing protein 1 (Homo sapiens, UniProt Q99814): Kd is 0.361 µM
